experimental-system: T1, orthogonal hCD122 receptor (hoRb), hCD122 with H133D and Y134F (human, UniProt P14784 27-550)
T1 sequence: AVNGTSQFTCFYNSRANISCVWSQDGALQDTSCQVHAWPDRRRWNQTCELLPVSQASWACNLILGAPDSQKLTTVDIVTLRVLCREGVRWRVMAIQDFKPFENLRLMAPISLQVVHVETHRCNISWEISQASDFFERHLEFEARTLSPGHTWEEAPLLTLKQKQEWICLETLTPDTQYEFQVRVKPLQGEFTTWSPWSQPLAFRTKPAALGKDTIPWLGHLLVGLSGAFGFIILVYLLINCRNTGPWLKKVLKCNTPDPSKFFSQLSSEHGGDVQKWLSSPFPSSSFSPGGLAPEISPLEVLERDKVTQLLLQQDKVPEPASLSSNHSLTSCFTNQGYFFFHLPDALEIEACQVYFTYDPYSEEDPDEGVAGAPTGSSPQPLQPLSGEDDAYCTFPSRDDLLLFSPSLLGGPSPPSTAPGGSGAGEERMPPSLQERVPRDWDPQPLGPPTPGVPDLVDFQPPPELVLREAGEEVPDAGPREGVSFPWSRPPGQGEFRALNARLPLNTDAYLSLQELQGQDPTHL
test-details: cell-based or functional assay
property-measured: NKL Ortho Proliferation Signal 1:10
Reply briefly: the number, and no unit.

Which NKL Ortho Proliferation Signal 1:10 value belongs to SQVLLA (ligand) APTSSSTKKTQLQLSQLLVLLLAILNGINNYKNPKLTRMLTFKFYMPKKATELKHLQCLEEELKPLEEVLNLAQSKNFHLRPRDLISNINVIVLELKGSETTFMCEYADETATIVEFLNRWITFCQSIISTLT ?
16100

Which NKL Ortho Proliferation Signal 1:10 value belongs to L80V, SQVLKA (ligand) APTSSSTKKTQLQLSQLLVLLKAILNGINNYKNPKLTRMLTFKFYMPKKATELKHLQCLEEELKPLEEVLNLAQSKNFHVRPRDLISNINVIVLELKGSETTFMCEYADETATIVEFLNRWITFCQSIISTLT ?
51600
